These measurements were taken from paper PMC10504751.

// melting point lookup, one value per entry
Quantity measured: melting point

[
  {
    "Cpd smiles": "O=C(CSc1nnc(-c2ccc3[nH]c(-c4ccccc4)nc3c2)o1)Nc1ccc(C(=O)/C=C/c2ccc(Cl)cc2)cc1",
    "Result": "263 to 264 °C"
  },
  {
    "Cpd smiles": "COc1ccc(/C=C/C(=O)c2ccc(NC(=O)CSc3nnc(-c4ccc5[nH]c(-c6ccc(OC)c(OC)c6)nc5c4)o3)cc2)cc1",
    "Result": "170 to 171 °C"
  },
  {
    "Cpd smiles": "COc1ccc(/C=C/C(=O)c2ccc(NC(=O)CSc3nnc(-c4ccc5[nH]c(-c6cc(OC)c(OC)c(OC)c6)nc5c4)o3)cc2)cc1OC",
    "Result": "212 to 215 °C"
  },
  {
    "Cpd smiles": "COc1ccc(/C=C/C(=O)c2ccc(NC(=O)CSc3nnc(-c4ccc5[nH]c(-c6ccc(Cl)cc6)nc5c4)o3)cc2)cc1OC",
    "Result": "208 to 210 °C"
  }
]
